- Tested on: HCI-027 (organoid from a triple-negative breast cancer xenograft)
- test: CTG-3D luminescence at 96 h relative to day-0 seeding control (ratio to day 0); higher = more growth / less cytotoxicity; PDxO 3D drug screen (set 2), 96 h, CTG-3D normalised to day-0 seeding control.
- run conditions: 0.1 µM; days in culture: 186
Reported CTG-3D luminescence at 96 h by item:
In your answer, state the number alone without any accompanying words.

Recorded CTG-3D luminescence at 96 h, per entry:
molecule: CC(=O)c1c(C)c2cnc(Nc3ccc(N4CCNCC4)cn3)nc2n(C2CCCC2)c1=O [palbociclib]
measurement kind: CTG-3D luminescence at 96 h
test value: 2.42
--
molecule: CO[C@H]1C[C@@H]2CC[C@@H](C)[C@@](O)(O2)C(=O)C(=O)N2CCCC[C@H]2C(=O)O[C@H]([C@H](C)C[C@@H]2CC[C@@H](OCCO)[C@H](OC)C2)CC(=O)[C@H](C)/C=C(\C)[C@@H](O)[C@@H](OC)C(=O)[C@H](C)C[C@H](C)/C=C/C=C/C=C/1C [everolimus]
measurement kind: CTG-3D luminescence at 96 h
test value: 1.05
--
molecule: CCOc1ccn(-c2ccc(F)cc2)c(=O)c1C(=O)Nc1ccc(Oc2ccnc(N)c2Cl)c(F)c1 [ASLAN002]
measurement kind: CTG-3D luminescence at 96 h
test value: 2.45

Test system HCI-027; read-out CTG-3D luminescence at 96 h; what value for CC(=O)O[C@@]12CO[C@@H]1C[C@H](O)[C@@]1(C)C(=O)[C@H](O)C3=C(C)[C@@H](OC(=O)[C@H](O)[C@@H](NC(=O)OC(C)(C)C)c4ccccc4)C[C@@](O)([C@@H](OC(=O)c4ccccc4)[C@H]21)C3(C)C [docetaxel] ?
0.693

Test system HCI-027; read-out CTG-3D luminescence at 96 h; what value for CS(=O)(=O)CCNCc1ccc(-c2ccc3ncnc(Nc4ccc(OCc5cccc(F)c5)c(Cl)c4)c3c2)o1 [lapatinib] ?
2.74

Test system HCI-027; read-out CTG-3D luminescence at 96 h; what value for CC(C)n1nc(-c2ccc3oc(N)nc3c2)c2c(N)ncnc21 [sapanisertib] ?
1.25

====

- Tested on: HCI-002 (organoid from a triple-negative breast cancer xenograft)
- test: CTG-3D luminescence at 96 h relative to day-0 seeding control (ratio to day 0); higher = more growth / less cytotoxicity; PDxO 3D drug screen, 96 h, CTG-3D normalised to day-0 seeding control.
- run conditions: 12.5 pM; days in culture: 91
measurement kind: CTG-3D luminescence at 96 h
In your answer, state the number alone without any accompanying words.

Recorded CTG-3D luminescence at 96 h, per entry:
molecule: COc1cc2c(Oc3ccc4[nH]c(C)cc4c3F)ncnc2cc1OCCCN1CCCC1 [cediranib]
CTG-3D luminescence at 96 h: 4.4
--
molecule: O=C(c1ccc(F)c(F)c1Nc1ccc(I)cc1F)N1CC(O)([C@@H]2CCCCN2)C1 [cobimetinib]
CTG-3D luminescence at 96 h: 3.83

Requested field: CTG-3D luminescence at 96 h. Item: C=CC(=O)N1CCC[C@@H](n2nc(-c3ccc(Oc4ccccc4)cc3)c3c(N)ncnc32)C1 [ibrutinib]
3.98

====

- Test system: HCI-016 (organoid from a triple-negative breast cancer xenograft)
- test: CTG-3D luminescence at 96 h relative to day-0 seeding control (ratio to day 0); higher = more growth / less cytotoxicity; PDxO 3D drug screen, 96 h, CTG-3D normalised to day-0 seeding control.
- run conditions: 0.00025 µM; days in culture: 190
measurement kind: CTG-3D luminescence at 96 h
In your answer, state the number alone without any accompanying words.

compound: NC(=O)c1cccc2cn(-c3ccc([C@@H]4CCCNC4)cc3)nc12
CTG-3D luminescence at 96 h: 1.64

compound: C=CCn1c(=O)c2cnc(Nc3ccc(N4CCN(C)CC4)cc3)nc2n1-c1cccc(C(C)(C)O)n1
CTG-3D luminescence at 96 h: 1.28

compound: Nc1ccn([C@@H]2O[C@H](CO)[C@@H](O)C2(F)F)c(=O)n1
CTG-3D luminescence at 96 h: 1.34

compound: CN(Cc1cnc2nc(N)nc(N)c2n1)c1ccc(C(=O)N[C@@H](CCC(=O)O)C(=O)O)cc1 [methotrexate]
CTG-3D luminescence at 96 h: 1.3

compound: CC(=O)O[C@H]1C(=O)[C@@]2(C)[C@H]([C@H](OC(=O)c3ccccc3)[C@]3(O)C[C@H](OC(=O)[C@H](O)[C@@H](NC(=O)c4ccccc4)c4ccccc4)C(C)=C1C3(C)C)[C@]1(OC(C)=O)CO[C@@H]1C[C@@H]2O
CTG-3D luminescence at 96 h: 1.42

Requested field: CTG-3D luminescence at 96 h. Item: C[C@]12CC[C@@H]3c4ccc(O)cc4C[C@@H](CCCCCCCCC[S+]([O-])CCCC(F)(F)C(F)(F)F)[C@H]3[C@@H]1CC[C@@H]2O (some centres not stated)
1.54

Requested field: CTG-3D luminescence at 96 h. Item: CCN(c1cc(C#CCN2CCOCC2)cc(C(=O)NCc2c(C)cc(C)[nH]c2=O)c1C)[C@H]1CC[C@H](N(C)CCOC)CC1
1.67

Requested field: CTG-3D luminescence at 96 h. Item: CCN1CCN(Cc2ccc(Nc3ncc(F)c(-c4cc(F)c5nc(C)n(C(C)C)c5c4)n3)nc2)CC1
1.4

Requested field: CTG-3D luminescence at 96 h. Item: CC(C)n1nc(-c2ccc3oc(N)nc3c2)c2c(N)ncnc21
1.47

Requested field: CTG-3D luminescence at 96 h. Item: O=C(O)C1(C(=O)O)CCC1.[NH2-].[NH2-].[Pt+2]
1.29

Requested field: CTG-3D luminescence at 96 h. Item: Cc1nc(-c2cn3c(n2)-c2ccc(-c4cnn(C(C)(C)C(N)=O)c4)cc2OCC3)n(C(C)C)n1
1.3

Requested field: CTG-3D luminescence at 96 h. Item: O=C(c1ccc(F)c(F)c1Nc1ccc(I)cc1F)N1CC(O)([C@@H]2CCCCN2)C1
1.08

====

- Tested on: HCI-023 (organoid from a triple-negative breast cancer xenograft)
- test: CTG-3D luminescence at 96 h relative to day-0 seeding control (ratio to day 0); higher = more growth / less cytotoxicity; PDxO 3D drug screen, 96 h, CTG-3D normalised to day-0 seeding control.
- run conditions: 0.00025 µM; days in culture: 111
measurement kind: CTG-3D luminescence at 96 h
In your answer, state the number alone without any accompanying words.

Requested field: CTG-3D luminescence at 96 h. Item: NC(=O)c1cccc2cn(-c3ccc([C@@H]4CCCNC4)cc3)nc12 [niraparib]
1.44

Requested field: CTG-3D luminescence at 96 h. Item: Cc1cc(Nc2ncnc3ccc(NC4=NC(C)(C)CO4)cc23)ccc1Oc1ccn2ncnc2c1 [tucatinib]
1.13

Requested field: CTG-3D luminescence at 96 h. Item: NC(=O)Nc1cc(-c2cccc(F)c2)sc1C(=O)N[C@H]1CCCNC1 [AZD7762]
1.49

Requested field: CTG-3D luminescence at 96 h. Item: CCc1c2c(nc3ccc(O)cc13)-c1cc3c(c(=O)n1C2)COC(=O)[C@]3(O)CC [SN-38]
1.19

Requested field: CTG-3D luminescence at 96 h. Item: Cc1nc(-c2cn3c(n2)-c2ccc(-c4cnn(C(C)(C)C(N)=O)c4)cc2OCC3)n(C(C)C)n1 [taselisib]
1.41

Requested field: CTG-3D luminescence at 96 h. Item: O=C(O)C1(C(=O)O)CCC1.[NH2-].[NH2-].[Pt+2] [carboplatin]
1.31

Requested field: CTG-3D luminescence at 96 h. Item: COc1cc2c(Oc3ccc4[nH]c(C)cc4c3F)ncnc2cc1OCCCN1CCCC1 [cediranib]
1.23

Requested field: CTG-3D luminescence at 96 h. Item: CC(C)n1nc(-c2ccc3oc(N)nc3c2)c2c(N)ncnc21 [sapanisertib]
1.65

====

- Test system: HCI-001 (organoid from a triple-negative breast cancer xenograft)
- test: CTG-3D luminescence at 96 h relative to day-0 seeding control (ratio to day 0); higher = more growth / less cytotoxicity; PDxO 3D drug screen (set 2), 96 h, CTG-3D normalised to day-0 seeding control.
- run conditions: 625 fM; days in culture: 397
measurement kind: CTG-3D luminescence at 96 h
In your answer, state the number alone without any accompanying words.

molecule: CO[C@H]1C[C@@H]2CC[C@@H](C)[C@@](O)(O2)C(=O)C(=O)N2CCCC[C@H]2C(=O)O[C@H]([C@H](C)C[C@@H]2CC[C@@H](O)[C@H](OC)C2)CC(=O)[C@H](C)/C=C(\C)[C@@H](O)[C@@H](OC)C(=O)[C@H](C)C[C@H](C)/C=C/C=C/C=C/1C
CTG-3D luminescence at 96 h: 1.1
--
molecule: Nc1cc(C(F)(F)F)c(-c2cc(N3CCOCC3)nc(N3CCOCC3)n2)cn1
CTG-3D luminescence at 96 h: 1.44
--
molecule: COc1cccc2c1C(=O)c1c(O)c3c(c(O)c1C2=O)C[C@@](O)(C(=O)CO)C[C@@H]3O[C@H]1C[C@H](N)[C@@H](O)[C@H](C)O1 [epirubicin]
CTG-3D luminescence at 96 h: 1.83
--
molecule: Cc1c(CN2CCN(C(=O)[C@H](C)O)CC2)sc2c(N3CCOCC3)nc(-c3cnc(N)nc3)nc12
CTG-3D luminescence at 96 h: 1.38

Moving on to another molecule below.
Requested field: CTG-3D luminescence at 96 h. Item: C[C@@H](Nc1cc(F)cc(F)c1)c1cc(C(=O)N(C)C)cc2c(=O)cc(N3CCOCC3)oc12
1.6
